src = patent US20080286228A1

smooth muscle contraction of human umbilical artery, pD2 values for the binders below.
tested.on: T1, C5a receptor expressed on the surface of human PMNs (human, UniProt P21730 1-350)
T1 sequence (looked up): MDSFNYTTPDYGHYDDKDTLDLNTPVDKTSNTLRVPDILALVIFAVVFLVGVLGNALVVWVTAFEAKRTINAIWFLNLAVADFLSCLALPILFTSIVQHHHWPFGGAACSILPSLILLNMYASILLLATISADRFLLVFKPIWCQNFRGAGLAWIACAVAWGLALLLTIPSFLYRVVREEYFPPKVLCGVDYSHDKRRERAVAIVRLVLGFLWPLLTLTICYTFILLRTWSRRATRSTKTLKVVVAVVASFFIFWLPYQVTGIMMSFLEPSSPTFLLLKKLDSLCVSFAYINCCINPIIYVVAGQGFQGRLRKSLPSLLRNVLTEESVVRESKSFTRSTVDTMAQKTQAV
assay.notes: cell-based or functional assay
Non-standard residues stand in square brackets, D forms with d. No end group written: not given here.
parameter.measured: smooth muscle contraction of human umbilical artery, pD2

binder	result
natural C5a (ligand, UniProt P01031 678-751, looked up, C5a is a fragment of it) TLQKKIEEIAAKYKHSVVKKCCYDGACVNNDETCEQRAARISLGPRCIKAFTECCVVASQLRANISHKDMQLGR	8.77 -log EC50 (M)
IPQSLDSWWTSLRRYSFKPMPL[dA]RG (synthetic peptide) [IPQSLDSWWTSLRRYSFKPMPLaRG]	5.17 -log EC50 (M)
YSFKPMPL[dA]R (synthetic peptide; also called C5a agonist) [C5a C-terminal decapeptide agonist analog YSFKPMPLaR]	6.99 -log EC50 (M)
